Biological target: T1, hiR2-FL-M534-T7 (deletion of M534) (human, UniProt Q6PJF5 1-856)
T1 construct: single amino acid deletion
T1 sequence: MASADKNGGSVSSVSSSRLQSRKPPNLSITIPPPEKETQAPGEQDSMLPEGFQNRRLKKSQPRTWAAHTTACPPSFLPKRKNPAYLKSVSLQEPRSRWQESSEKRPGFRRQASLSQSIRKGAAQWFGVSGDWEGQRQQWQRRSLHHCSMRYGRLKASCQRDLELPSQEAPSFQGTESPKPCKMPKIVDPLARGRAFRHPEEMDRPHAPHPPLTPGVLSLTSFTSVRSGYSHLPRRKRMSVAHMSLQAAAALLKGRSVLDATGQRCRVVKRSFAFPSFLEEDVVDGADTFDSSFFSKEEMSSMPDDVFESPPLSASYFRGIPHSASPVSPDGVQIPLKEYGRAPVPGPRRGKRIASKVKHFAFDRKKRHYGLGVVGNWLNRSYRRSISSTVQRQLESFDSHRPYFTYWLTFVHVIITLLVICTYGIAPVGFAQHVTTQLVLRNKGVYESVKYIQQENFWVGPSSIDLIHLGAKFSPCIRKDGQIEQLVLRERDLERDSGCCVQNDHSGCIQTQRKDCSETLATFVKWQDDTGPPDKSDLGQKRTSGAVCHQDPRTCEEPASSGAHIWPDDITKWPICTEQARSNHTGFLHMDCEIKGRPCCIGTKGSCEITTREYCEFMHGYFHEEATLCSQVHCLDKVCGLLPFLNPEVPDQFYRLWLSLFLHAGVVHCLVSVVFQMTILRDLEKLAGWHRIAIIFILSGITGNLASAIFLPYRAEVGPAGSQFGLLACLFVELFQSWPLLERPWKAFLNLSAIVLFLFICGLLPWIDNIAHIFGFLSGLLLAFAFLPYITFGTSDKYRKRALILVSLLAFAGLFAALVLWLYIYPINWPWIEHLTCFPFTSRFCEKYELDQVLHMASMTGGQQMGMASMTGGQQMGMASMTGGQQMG
Experiment: FACS, MEF-DKO cells, 3 µg/ml
measured metric: loss of binding vs wild type

Q. Reported loss of binding vs wild type, binder antibody 16 (antibody, V domains shown, mouse IgG, kappa light chain; also called clone #16; purified antibody 16) VH: QVTLKESGPGILQPSQTLSLTCSFSGFSLSTFALGVGWIRQPSGRGLEWLAHIWWDDDKYYNPALKSRLTISKDTSKNHVFLKIANVDTADTATYYCARITTYYYGMDYWGQGTSVTVSS VL: DIVLSQSPATLSVTPGDSVSLFCRASQSIGNHLHWYQQESHASPRLLIKYASQSISGIPSRFSGSGSGTDFTLSINSVETEDFGMYFCQQSYNWPLTFGAGTKLELK : ____
A. ≥ 95%

Measured values drawn from patent US20240287172A1 for this set.
